- method: chemical genetic growth profiling, strain panel (AID 1159580);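 note: tested at 20 µM; growth read once vehicle control cultures reached saturation at 30 °C; 1 = growth at the plate median or of vehicle wells; lower values mean less growth of the strain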
- experimentalSetup: S. cerevisiae deletion strains, growth OD, locus YAL030W, strain snc1, active compounds read low
About 2,000 (36%) of roughly 5,500 compounds were called active. About 18% were inconclusive and are not listed. This is one part of the list.
In this section, each of the compounds is paired with its reported normalized growth.
readoutKind: normalized growth

compound	readoutKind	reading
CCCCCCCCNC(C)C(O)c1ccc(SC(C)C)cc1 (stereo not drawn)	normalized growth	0.0546 (active)
CC(C)(O)[C@@H]1[C@H]2OC(=O)[C@@H]1[C@]1(O)C[C@H]3O[C@]34C(=O)O[C@H]2[C@]14C	normalized growth	1 (inactive)
Oc1cc(Cl)ccc1Oc1ccc(Cl)cc1Cl	normalized growth	0.0536 (active)
OCCN1C[C@@H](O)[C@@H](O)C(O)C1CO (stereo partly drawn)	normalized growth	0.999 (inactive)
CS(=O)(=O)c1ccc(C2=C(c3ccccc3)C(=O)OC2)cc1	normalized growth	0.971 (inactive)
COc1cc2c(cc1OC)C(=O)OC2	normalized growth	0.981 (inactive)
CCCCCCCCCCCCCCCC(=O)OC/C=C(C)/C=C/C=C(C)/C=C/C1=C(C)CCCC1(C)C	normalized growth	1.03 (inactive)
COc1ccc2c(c1)O[C@@H]1COc3cc(OC)c(OC)cc3[C@@H]1C2=O	normalized growth	0.663 (active)
COc1cc2c(cc1OC)[C@@H]1C(=O)c3ccc(O)c(CC=C(C)C)c3O[C@@H]1CO2	normalized growth	1.03 (inactive)
CC(CCc1ccccc1)NC(C)C(O)c1ccc(O)cc1 (stereo not drawn)	normalized growth	0.999 (inactive)
Cc1cccc(C)c1OCC(C)N (stereo not drawn)	normalized growth	1 (inactive)
COc1cc(NS(=O)(=O)c2ccc(N)cc2)nc(OC)n1	normalized growth	0.976 (inactive)
COc1cc(O)c(C(=O)/C=C/c2ccc(O)c(OC)c2)c(OC)c1	normalized growth	0.972 (inactive)
O=C(O)C1(O)C[C@@H](O)C(O)[C@H](O)C1 (stereo partly drawn)	normalized growth	0.987 (inactive)
CCC(=O)O[C@H]1CCC2C3CCC4=CC(=O)CC[C@]4(C)C3CC[C@@]21C (stereo partly drawn)	normalized growth	0.924 (active)
COc1ccc2cc([C@H](C)C(=O)O)ccc2c1	normalized growth	0.981 (inactive)
c1cncc(C2CCCCN2)c1 (stereo not drawn)	normalized growth	1 (inactive)
COc1cc(O)c(C(=O)/C=C/c2ccc(OC)c(O)c2)c(OC)c1	normalized growth	0.961 (inactive)
CN[C@@H](C)[C@@H](O)c1ccccc1	normalized growth	0.995 (inactive)
c1ccc(N=Nc2ccccc2)cc1	normalized growth	0.985 (inactive)
CC(NCCc1ccc(O)cc1)C(O)c1ccc(O)cc1 (stereo not drawn)	normalized growth	1.01 (inactive)
CC(=O)NC1SCCC1=O (stereo not drawn)	normalized growth	0.975 (inactive)
CC1=C(C/C=C(\C)CCC[C@H](C)CCC[C@H](C)CCCC(C)C)C(=O)c2ccccc2C1=O	normalized growth	0.995 (inactive)
CN1CCCN=C1COC(=O)C(O)(c1ccccc1)C1CCCCC1 (stereo not drawn)	normalized growth	0.996 (inactive)
COc1cc(O)c(C(=O)/C=C/c2ccccc2)c(OC)c1	normalized growth	0.941 (inactive)
S=c1nc[nH]c2nc[nH]c12	normalized growth	1.02 (inactive)
CC(=O)O[C@H]1[C@@H]2[C@@H](OC(=O)Cc3ccccc3)[C@@H](C)C[C@]2(OC(C)=O)C(=O)/C(C)=C/[C@H]2[C@H](CC[C@@]13CO3)C2(C)C	normalized growth	0.986 (inactive)
CCOC(=O)[C@H](CCc1ccccc1)N[C@H]1CCc2ccccc2N(CC(=O)O)C1=O	normalized growth	0.992 (inactive)
C[C@]12CCC(=O)C=C1CCC1C2CC[C@@]2(C)C1CC[C@@H]2O (stereo partly drawn)	normalized growth	0.997 (inactive)
CN1CCc2cc3c(cc2[C@H]1C1OC(=O)c2c1ccc1c2OCO1)OCO3 (stereo partly drawn)	normalized growth	0.982 (inactive)
CC(=O)[C@H]1CCC2C3CCC4=CC(=O)CC[C@]4(C)C3CC[C@@]21C (stereo partly drawn)	normalized growth	0.975 (inactive)
CCOC(=O)C(Cc1ccc(O)cc1)NC(C)=O (stereo not drawn)	normalized growth	1 (inactive)
CC(C(=O)O)c1ccc(-c2ccccc2)c(F)c1 (stereo not drawn)	normalized growth	0.99 (inactive)
CC1=C(/C=C/C(C)=C/C=C/C(C)=C/C=C/C=C(C)/C=C/C=C(C)/C=C/C(=O)[C@]2(C)C[C@@H](O)CC2(C)C)C(C)(C)C[C@H](O)C1	normalized growth	1.01 (inactive)
COC1=CC(=O)C[C@@H](C)[C@]12Oc1c(Cl)c(OC)cc(OC)c1C2=O	normalized growth	0.988 (inactive)
CCN(CC)CCNC(=O)c1cc(Br)c(N)cc1OC	normalized growth	0.997 (inactive)
CC1CC2C3CCC4=CC(=O)C=C[C@]4(C)[C@@]3(F)[C@@H](O)C[C@]2(C)[C@@]1(O)C(=O)CO (stereo partly drawn)	normalized growth	0.96 (inactive)
CC(=O)OCC[N+](C)(C)C	normalized growth	1.02 (inactive)
NCCSSCCN	normalized growth	0.994 (inactive)
COC1=C(OC)C(=O)C(C/C=C(\C)CC/C=C(\C)CC/C=C(\C)CC/C=C(/C)CC/C=C(\C)CC/C=C(\C)CC/C=C(\C)CC/C=C(\C)CC/C=C(\C)CCC=C(C)C)=C(C)C1=O	normalized growth	0.989 (inactive)
COc1cc2c(cc1OC)[C@@H]1C(=O)c3ccc(OC)c(CC=C(C)C)c3O[C@@H]1CO2	normalized growth	1.02 (inactive)
CC(=O)N[C@@H](CC(C)C)C(=O)O	normalized growth	1 (inactive)
CC1=C(/C=C/C(C)=C/C=C/C(C)=C/C=C/C=C(C)/C=C/C=C(C)/C=C/C2=C(C)C(=O)CCC2(C)C)C(C)(C)CCC1=O	normalized growth	0.981 (inactive)

Sourced from PubChem BioAssay AID1159580
